target_or_test_system: Cytochrome P450 2C9 (Homo sapiens)
Sequence (P11712 whole entry): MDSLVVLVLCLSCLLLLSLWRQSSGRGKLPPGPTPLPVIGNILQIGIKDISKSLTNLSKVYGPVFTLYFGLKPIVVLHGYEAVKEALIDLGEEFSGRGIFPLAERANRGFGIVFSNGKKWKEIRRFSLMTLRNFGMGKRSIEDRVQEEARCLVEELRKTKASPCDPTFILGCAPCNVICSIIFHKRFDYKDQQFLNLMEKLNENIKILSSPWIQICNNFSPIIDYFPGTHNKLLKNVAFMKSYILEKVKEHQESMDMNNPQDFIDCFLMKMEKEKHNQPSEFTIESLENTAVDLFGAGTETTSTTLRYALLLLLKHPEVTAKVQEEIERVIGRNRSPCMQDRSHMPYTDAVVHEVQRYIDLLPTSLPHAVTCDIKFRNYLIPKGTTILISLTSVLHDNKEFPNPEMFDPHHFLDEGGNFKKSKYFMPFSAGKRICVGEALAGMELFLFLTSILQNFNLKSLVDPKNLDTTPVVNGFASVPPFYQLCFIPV
observable: IC50

Value sought: IC50, system Cytochrome P450 2C9 (Homo sapiens), item CNC(=O)[C@@]12C[C@@H]1[C@@H](n1cnc3c(NCCc4ccc(OC)c(OC)c4)nc(C#Cc4ccc(Cl)s4)nc31)[C@H](O)[C@@H]2O . Result: > 30 µM

* * *

measurement_protocol: Apparent permeability across apical to basolateral side in human Caco-2 cells
Format: ADME, cell-based
observable: Papp A→B (×10⁻⁶ cm/s)
Please state the figure in ×10⁻⁶ cm/s; there is no need to write the unit.

Papp A→B reading for COc1cc(CCNc2nc(C#Cc3ccccc3)nc3c2ncn3[C@H]2[C@H](O)[C@H](O)[C@@H]3C[C@@H]32)ccc1O : 2.71

* * *

target_or_test_system: Adenosine receptor A2a (Homo sapiens)
measurement_protocol: Displacement of [3H]-2-p-2-(carboxyethyl)phenyl-ethylamino-5'-N-ethylcarboxamidoadenosine from human A2A receptor stably expressed in HEK293 cell membrane by radioligand inhibition assay
Assay type: cell membranes
observable: Ki (µM)
Please state the figure in µM; there is no need to write the unit.

line_notation: COc1cc(CCNc2nc(OCC(C)C)nc3c2ncn3[C@H]2[C@H](O)[C@H](O)[C@@H]3C[C@@H]32)ccc1O
Ki (µM): 5.05

Ki reading for CNC(=O)[C@@]12C[C@@H]1[C@@H](n1cnc3c(NCCc4ccc(OC)c(O)c4)nc(OC)nc31)[C@H](O)[C@@H]2O : 10.2

Ki reading for CNC(=O)[C@@]12C[C@@H]1[C@@H](n1cnc3c(NCc4ccc(O)c(OC)c4)nc(C#Cc4ccc(Cl)s4)nc31)[C@H](O)[C@@H]2O : 8.21

Ki reading for CNC(=O)[C@@]12C[C@@H]1[C@@H](n1cnc3c(NCCc4ccc(OC)c(O)c4)nc(OCC4CC4)nc31)[C@H](O)[C@@H]2O : 4.72

* * *

Recorded measurements of inhibition, one per entry
target_or_test_system: Adenosine receptor A2a (Homo sapiens, UniProt P29274)
Sequence (P29274 whole entry): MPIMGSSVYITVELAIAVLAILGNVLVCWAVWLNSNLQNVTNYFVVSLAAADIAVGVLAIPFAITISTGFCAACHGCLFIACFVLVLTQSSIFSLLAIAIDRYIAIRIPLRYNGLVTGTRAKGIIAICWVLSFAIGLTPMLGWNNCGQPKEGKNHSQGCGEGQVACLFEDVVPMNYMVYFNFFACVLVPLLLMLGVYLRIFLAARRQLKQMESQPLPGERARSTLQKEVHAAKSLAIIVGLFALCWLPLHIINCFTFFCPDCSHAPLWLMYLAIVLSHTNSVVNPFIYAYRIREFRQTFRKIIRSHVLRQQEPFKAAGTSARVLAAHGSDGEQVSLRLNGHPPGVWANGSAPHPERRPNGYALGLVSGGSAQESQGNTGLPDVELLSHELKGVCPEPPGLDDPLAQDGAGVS
measurement_protocol: Binding affinity to human adenosine A2A receptor expressed in human HEK293 cell membrane at 10 uM by radioligand inhibition assay
Format: cell membranes
Please state the figure in %; there is no need to write the unit.

Some solved entries appear below for comparison.
line_notation: CNC(=O)[C@@]12C[C@@H]1[C@@H](n1cnc3c(NCCc4ccccc4)nc(I)nc31)[C@H](O)[C@@H]2O
inhibition (%): 39

line_notation: CNC(=O)[C@@]12C[C@@H]1[C@@H](n1cnc3c(NCCc4ccc(O)c(O)c4)nc(C#Cc4ccc(Cl)s4)nc31)[C@H](O)[C@@H]2O
inhibition (%): 8

line_notation: CNC(=O)[C@@]12C[C@@H]1[C@@H](n1cnc3c(NCCc4ccccc4)nc(C#Cc4ccccc4Cl)nc31)[C@H](O)[C@@H]2O
inhibition (%): 30

line_notation: CNC(=O)[C@@]12C[C@@H]1[C@@H](n1cnc3c(NCCc4ccc(OC)c(OC)c4)nc(C#Cc4ccc(Br)s4)nc31)[C@H](O)[C@@H]2O
inhibition (%): 36

line_notation: CNC(=O)[C@@]12C[C@@H]1[C@@H](n1cnc3c(NCCc4ccc(O)c(OC)c4)nc(I)nc31)[C@H](O)[C@@H]2O
inhibition (%): 43

inhibition reading for CNC(=O)[C@@]12C[C@@H]1[C@@H](n1cnc3c(NCCc4ccc(O)c(OC)c4)nc(C#Cc4ccc(F)c(F)c4)nc31)[C@H](O)[C@@H]2O : 9

inhibition reading for CNC(=O)[C@@]12C[C@@H]1[C@@H](n1cnc3c(NCCc4ccc(O)c(OC)c4)nc(C#Cc4ccco4)nc31)[C@H](O)[C@@H]2O : 32

* * *

target_or_test_system: Adenosine receptor A1 (Homo sapiens) (UniProt P30542)
Sequence (P30542 whole entry): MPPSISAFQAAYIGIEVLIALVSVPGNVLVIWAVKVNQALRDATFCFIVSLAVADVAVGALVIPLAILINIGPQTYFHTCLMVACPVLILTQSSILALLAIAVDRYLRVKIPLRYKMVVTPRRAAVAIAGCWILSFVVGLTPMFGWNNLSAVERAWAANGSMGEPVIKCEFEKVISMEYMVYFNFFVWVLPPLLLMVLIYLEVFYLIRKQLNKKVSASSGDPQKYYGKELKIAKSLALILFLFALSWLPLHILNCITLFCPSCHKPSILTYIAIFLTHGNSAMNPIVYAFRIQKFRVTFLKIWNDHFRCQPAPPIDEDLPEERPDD
measurement_protocol: Binding affinity to human adenosine A1A receptor expressed in human HEK293 cell membrane at 10 uM by radioligand inhibition assay
Format: cell membranes
Recorded measurements of inhibition, one per entry
Please state the figure in %; there is no need to write the unit.

line_notation: CNC(=O)[C@@]12C[C@@H]1[C@@H](n1cnc3c(NCCc4ccc(O)c(OC)c4)nc(C#Cc4ccsc4)nc31)[C@H](O)[C@@H]2O
observable: inhibition
quantitative_readout: 30
--
line_notation: CNC(=O)[C@@]12C[C@@H]1[C@@H](n1cnc3c(NCCc4ccc(O)c(OC)c4)nc(C#Cc4ccccc4)nc31)[C@H](O)[C@@H]2O
observable: inhibition
quantitative_readout: 2
--
line_notation: CNC(=O)[C@@]12C[C@@H]1[C@@H](n1cnc3c(NCCc4ccc(OC)c(O)c4)nc(OC)nc31)[C@H](O)[C@@H]2O
observable: inhibition
quantitative_readout: 59

inhibition reading for CNC(=O)[C@@]12C[C@@H]1[C@@H](n1cnc3c(NCCc4ccc(O)c(OC)c4)nc(C#Cc4ccc(F)c(F)c4)nc31)[C@H](O)[C@@H]2O : 11

inhibition reading for CCOC(=O)[C@@]12C[C@@H]1[C@@H](n1cnc3c(NCCc4ccc(OC)c(O)c4)nc(C#Cc4ccc(Cl)s4)nc31)[C@H](O)[C@@H]2O : 7

inhibition reading for CNC(=O)[C@@]12C[C@@H]1[C@@H](n1cnc3c(NCCc4ccc(OC)c(OC)c4)nc(C#Cc4ccc(Cl)s4)nc31)[C@H](O)[C@@H]2O : 0

* * *

target_or_test_system: UniProt:Q60612
Sequence (Q60612 whole entry): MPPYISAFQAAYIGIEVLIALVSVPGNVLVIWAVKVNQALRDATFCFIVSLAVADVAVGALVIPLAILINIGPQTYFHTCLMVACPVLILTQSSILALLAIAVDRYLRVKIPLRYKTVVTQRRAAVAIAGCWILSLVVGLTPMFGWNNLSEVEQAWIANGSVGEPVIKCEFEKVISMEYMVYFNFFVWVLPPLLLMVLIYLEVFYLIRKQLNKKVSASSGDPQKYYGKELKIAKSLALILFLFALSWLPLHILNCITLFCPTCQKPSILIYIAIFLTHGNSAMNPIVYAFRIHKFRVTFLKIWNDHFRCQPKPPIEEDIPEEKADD
observable: pKi
Expect pKi as a plain number equal to -log10 of the molar concentration.

Some solved entries appear below for comparison.
line_notation: CNC(=O)[C@@]12C[C@@H]1[C@@H](n1cnc3c(NCCc4ccc(O)c(OC)c4)nc(C#Cc4ccccc4)nc31)[C@H](O)[C@@H]2O
quantitative_readout: 5.29
--
line_notation: CNC(=O)[C@@]12C[C@@H]1[C@@H](n1cnc3c(NCc4ccc(O)c(OC)c4)nc(C#Cc4ccc(Cl)s4)nc31)[C@H](O)[C@@H]2O
quantitative_readout: 5.63
--
line_notation: CNC(=O)[C@@]12C[C@@H]1[C@@H](n1cnc3c(NCCc4ccc(OC)c(O)c4)nc(OCC4CC4)nc31)[C@H](O)[C@@H]2O
quantitative_readout: 6.82
--
line_notation: CNC(=O)[C@@]12C[C@@H]1[C@@H](n1cnc3c(NCCc4ccc(O)c(OC)c4)nc(C#Cc4ccc(F)c(F)c4)nc31)[C@H](O)[C@@H]2O
quantitative_readout: 5.24
--
line_notation: CNC(=O)[C@@]12C[C@@H]1[C@@H](n1cnc3c(NCCc4ccc(OC)c(OC)c4)nc(I)nc31)[C@H](O)[C@@H]2O
quantitative_readout: 6.07

Continue with the next molecule.
Value sought: pKi, system UniProt:Q60612, item CNC(=O)[C@@]12C[C@@H]1[C@@H](n1cnc3c(NCCc4ccc(O)c(OC)c4)nc(I)nc31)[C@H](O)[C@@H]2O . Result: 6.32

* * *

target_or_test_system: Adenosine receptor A3 (Homo sapiens, UniProt P0DMS8)
Sequence (P0DMS8 whole entry): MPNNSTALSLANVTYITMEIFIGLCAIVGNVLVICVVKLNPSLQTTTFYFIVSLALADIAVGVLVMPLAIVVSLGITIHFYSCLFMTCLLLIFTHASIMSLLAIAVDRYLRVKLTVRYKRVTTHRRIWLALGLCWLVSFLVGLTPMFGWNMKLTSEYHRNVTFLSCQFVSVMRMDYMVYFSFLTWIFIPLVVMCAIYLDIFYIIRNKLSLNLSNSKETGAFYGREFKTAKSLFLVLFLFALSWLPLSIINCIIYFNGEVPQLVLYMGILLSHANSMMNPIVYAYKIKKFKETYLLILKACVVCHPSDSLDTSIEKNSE
measurement_protocol: Agonist activity at human adenosine A3A receptor stably expressed in HEK293 cells assessed as mini G-alpha recruitment potency by luciferase based NanoBiT assay
Format: functional, cell-based
observable: pEC50
Expect pEC50 as a plain number equal to -log10 of the molar concentration.

line_notation: CNC(=O)[C@@]12C[C@@H]1[C@@H](n1cnc3c(NCCc4ccc(OC)c(O)c4)nc(OC)nc31)[C@H](O)[C@@H]2O
pEC50: 7.41

pEC50 reading for CNC(=O)[C@@]12C[C@@H]1[C@@H](n1cnc3c(NCCc4ccccc4)nc(C#Cc4ccc(Cl)s4)nc31)[C@H](O)[C@@H]2O : 7.19

pEC50 reading for CNC(=O)[C@@]12C[C@@H]1[C@@H](n1cnc3c(NCCc4ccc(O)c(OC)c4)nc(C#Cc4ccc(Cl)s4)nc31)[C@H](O)[C@@H]2O : 7.36

pEC50 reading for CNC(=O)[C@@]12C[C@@H]1[C@@H](n1cnc3c(NCCc4ccc(O)c(OC)c4)nc(C#Cc4ccc(F)s4)nc31)[C@H](O)[C@@H]2O : 7.63

* * *

target_or_test_system: Voltage-gated inwardly rectifying potassium channel KCNH2 (Homo sapiens, UniProt Q12809)
Sequence (Q12809 whole entry): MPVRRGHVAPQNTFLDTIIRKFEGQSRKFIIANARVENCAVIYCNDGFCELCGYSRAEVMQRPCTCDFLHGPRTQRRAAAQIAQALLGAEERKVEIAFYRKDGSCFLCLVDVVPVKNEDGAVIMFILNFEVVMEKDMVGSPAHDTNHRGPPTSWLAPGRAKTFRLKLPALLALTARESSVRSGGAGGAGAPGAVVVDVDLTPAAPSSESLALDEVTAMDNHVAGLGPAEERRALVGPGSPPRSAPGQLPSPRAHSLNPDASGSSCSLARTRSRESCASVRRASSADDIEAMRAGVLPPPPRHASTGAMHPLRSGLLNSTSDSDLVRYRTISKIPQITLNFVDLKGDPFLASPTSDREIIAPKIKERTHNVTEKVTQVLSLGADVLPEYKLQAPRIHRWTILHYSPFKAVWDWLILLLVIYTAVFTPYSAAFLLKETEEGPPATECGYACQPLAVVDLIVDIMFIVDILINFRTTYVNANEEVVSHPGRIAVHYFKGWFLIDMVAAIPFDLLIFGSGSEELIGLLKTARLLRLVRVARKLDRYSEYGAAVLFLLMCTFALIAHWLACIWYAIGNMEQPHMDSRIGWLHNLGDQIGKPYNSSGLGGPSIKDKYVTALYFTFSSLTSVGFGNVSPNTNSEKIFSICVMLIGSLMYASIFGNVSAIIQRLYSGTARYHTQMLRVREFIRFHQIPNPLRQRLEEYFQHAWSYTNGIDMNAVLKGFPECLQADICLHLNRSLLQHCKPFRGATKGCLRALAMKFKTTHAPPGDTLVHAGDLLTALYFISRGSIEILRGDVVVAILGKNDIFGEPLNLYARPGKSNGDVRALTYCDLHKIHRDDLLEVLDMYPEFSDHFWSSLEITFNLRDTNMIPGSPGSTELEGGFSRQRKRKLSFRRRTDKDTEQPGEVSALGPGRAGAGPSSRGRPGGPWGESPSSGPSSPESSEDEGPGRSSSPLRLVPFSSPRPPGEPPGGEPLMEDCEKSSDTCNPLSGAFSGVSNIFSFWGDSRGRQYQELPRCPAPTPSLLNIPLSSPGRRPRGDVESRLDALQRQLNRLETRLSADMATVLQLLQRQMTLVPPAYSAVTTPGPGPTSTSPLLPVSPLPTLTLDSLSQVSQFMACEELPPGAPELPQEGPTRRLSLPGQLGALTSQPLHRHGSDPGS
measurement_protocol: Inhibition of human ERG
Type: toxicity
observable: IC50 (µM)
Please state the figure in µM; there is no need to write the unit.

Some solved entries appear below for comparison.
line_notation: CNC(=O)[C@@]12C[C@@H]1[C@@H](n1cnc3c(NCCc4ccc(OC)c(OC)c4)nc(C#Cc4ccc(Cl)s4)nc31)[C@H](O)[C@@H]2O
quantitative_readout: 3.65

line_notation: COc1cc(CCNc2nc(C#Cc3ccccc3)nc3c2ncn3[C@H]2[C@H](O)[C@H](O)[C@@H]3C[C@@H]32)ccc1O
quantitative_readout: 5.39

Continue with the next molecule.
IC50 reading for CNC(=O)[C@@]12C[C@@H]1[C@@H](n1cnc3c(NCCc4ccc(OC)c(O)c4)nc(OCC(C)C)nc31)[C@H](O)[C@@H]2O : 16.5

These measurements were taken from ChEMBL document CHEMBL5154659.
